method: physchem
settings: water

- structure smiles string: "CC(=O)Nc1c(I)c(C(=O)NCC(=O)N(CCO)CCO)c(I)c(C(=O)NCC(=O)N(CCO)CCO)c1I"
  solubility: "~3000 mg/mL"
